# target entity: 229E Mpro (Human coronavirus 229E, UniProt P0C6X1)
# Sequence (P0C6X1 2966-3267): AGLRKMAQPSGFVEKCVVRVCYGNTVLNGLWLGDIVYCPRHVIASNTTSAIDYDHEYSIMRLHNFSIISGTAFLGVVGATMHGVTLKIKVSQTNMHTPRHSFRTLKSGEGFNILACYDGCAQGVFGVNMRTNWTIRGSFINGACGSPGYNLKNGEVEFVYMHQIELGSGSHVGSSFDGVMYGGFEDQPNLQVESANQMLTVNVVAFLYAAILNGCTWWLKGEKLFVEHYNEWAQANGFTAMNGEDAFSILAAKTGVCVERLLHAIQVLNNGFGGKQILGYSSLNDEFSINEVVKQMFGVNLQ
# assay summary: 229E Mpro enzymatic assay (standard methods, SARS-CoV2 Mpro assay given as exemplary)
# Type: biochemical, human coronavirus (HCov) 229E
# measurement context: 229E Mpro EC50
Documented EC50 across a set of molecules

As a guide, the following entries are already answered.
molecule	observed result
CC(C)(C)c1ccc(N(C(=O)c2cnc[nH]2)C(C(=O)NC2CCCCC2)c2ncc(Cl)nc2C#N)cc1 (centres unmarked) [Compound 110]	> 30000 nM
C[C@@H]1CN(C#N)[C@H]1C(=O)N(c1ccc(S(F)(F)(F)(F)F)cc1)C(C(=O)NC1CCC(F)(F)CC1)c1cncc(F)c1 (single isomer, unassigned) [1211 Isomer 1]	< 2000 nM
N#CN1CC(=O)NCC1C(=O)N(c1ccc(S(F)(F)(F)(F)F)cc1)C(C(=O)NC1CCC(F)(F)CC1)c1cncc(F)c1 (single isomer, unassigned) [Compound 1160 Isomer 2]	2000 to 10000 nM
C[C@@]1(O)C[C@H](C(=O)N(c2ccc(S(F)(F)(F)(F)F)cc2)C(C(=O)NC2CCC(F)(F)CC2)c2cccnc2F)N(C#N)C1 (some centres unmarked) [Compound 1158]	< 2000 nM
N#CN1C[C@H]2C[C@H]2[C@@H]1C(=O)N(c1ccc(S(F)(F)(F)(F)F)cc1)C(C(=O)NC1CCC(F)(F)CC1)c1cncc(F)c1 (some centres unmarked) [Compound 1095b]	< 2000 nM
CO[C@@H]1C[C@H](C(=O)N(c2ccc(S(F)(F)(F)(F)F)cc2)C(C(=O)NCC(=O)N2CCCC2)c2cccnc2)N(C#N)C1 (some centres unmarked) [Compound 1182]	< 2000 nM
CO[C@@H]1C[C@H](C(=O)N(c2ccc(S(F)(F)(F)(F)F)cc2)C(C(=O)NC2CCC(F)(F)CC2)c2cnccc2C)N(C#N)C1 (single isomer, unassigned) [Compound 1199]	< 2000 nM
N#CN1C[C@H](O)C[C@@H]1C(=O)N(c1ccc(C2CC2)cc1)C(C(=O)NC1CCCCC1)c1cccnc1 (single isomer, unassigned) [723 Isomer 1]	< 2000 nM
N#CN1CC[C@H]2C[C@]21C(=O)N(c1ccc(S(F)(F)(F)(F)F)cc1)C(C(=O)NC1CCC(F)(F)CC1)c1cncc(F)c1 (some centres unmarked) [Compound 1261]	2000 to 10000 nM
N#CN1C[C@H](O)C[C@@H]1C(=O)N(c1ccc(C2CC2)cc1F)C(C(=O)NC1CCCCC1)c1cccnc1 (single isomer, unassigned) [Compound 763 Isomer 2]	2000 to 10000 nM

Return reported EC50; argument: CO[C@@H]1C[C@H](C(=O)N(c2ccc(S(F)(F)(F)(F)F)cc2)C(C(=O)NC2CCC(F)(F)CC2)c2cncc(F)c2)N(C#N)C1 (single isomer, unassigned) [1265 Isomer 1] < 2000 nM

====

# target entity: COVID-19 (nCoV-2019, SARS-CoV2) Mpro (Severe acute respiratory syndrome coronavirus 2, UniProt P0DTD1)
# assay summary: COVID-19 (nCoV-2019, SARS-CoV2) Mpro enzymatic assay
# Assay type: biochemical
# measurement context: 25 nM Mpro, 25 μM substrate; read-out: COVID-19 Mpro IC50
The entries below are paired with their reported IC50.

Examples from the recorded data:
compound	IC50
Cc1ccncc1C(C(=O)NC1CCC(F)(F)CC1)N(C(=O)[C@H]1C[C@@](C)(O)CN1C#N)c1ccc(S(F)(F)(F)(F)F)cc1 (some centres unmarked) [Compound 993c]	< 2 µM
CO[C@@H]1C[C@H](C(=O)N(c2ccc(S(F)(F)(F)(F)F)cc2)C(C(=O)N2CCCC3(COC3)C2)c2cccnc2)N(C#N)C1 (single isomer, unassigned) [1175 Isomer 2]	10 to 30 µM
N#CN1C[C@H](O)C[C@@H]1C(=O)N(c1ccc(C2(C(F)(F)F)CC2)cc1)C(C(=O)NC1CCCCC1)c1cccnc1 (single isomer, unassigned) [735 Isomer 1]	< 2 µM
CC(C)(C)c1ccc(N(C(=O)[C@H]2C[C@@](C)(O)CN2C#N)C(C(=O)NC2CCC(F)(F)CC2)c2cnccn2)cc1 (some centres unmarked)	< 2 µM

The record that follows has no IC50 shown yet.
// IC50 lookup, key: N#CN1C[C@H](O)C[C@@H]1C(=O)N(c1ccc(C2CC2)cc1F)C(C(=O)NC1CCCCC1)c1cccnc1 (single isomer, unassigned) [Compound 763 Isomer 2] 10 to 30 µM

====

# target entity: COVID-19 (nCoV-2019, SARS-CoV2) Mpro (Severe acute respiratory syndrome coronavirus 2)
# assay summary: COVID-19 (nCoV-2019, SARS-CoV2) Mpro enzymatic assay
# Type: biochemical
# measurement context: 25 nM Mpro, 25 μM substrate; read-out: COVID-19 Mpro IC50
pIC50: −log10 of the molar value.
property measured: pIC50

Please review the following examples before continuing.
molecule	pIC50
CC(C)(C)c1ccc(N(C(=O)c2cnc[nH]2)C(C(=O)NC2CCCCC2)c2cccnc2)c(C#N)n1 (centres unmarked)	< 4.52
C[C@@H]1CN(C#N)[C@H]1C(=O)N(c1ccc(S(F)(F)(F)(F)F)cc1)C(C(=O)NC1CCC(F)(F)CC1)c1cncc(F)c1 (single isomer, unassigned) [1211 Isomer 2]	> 5.70

pIC50 lookup needed for CC(C)(C)c1ccc(N(C(=O)[C@H]2CCCN2C#N)C(C(=O)N2CCOCC2)c2cccnc2)cc1 (single isomer, unassigned) [Compound 959 Isomer 1] , thanks. < 4.52

Fill in the blank: the reported pIC50 of CC(C)(C)c1ccc(N(C(=O)[C@H]2[C@H](F)CCN2C#N)C(C(=O)NC2CCCCC2)c2cccnc2)cc1 (single isomer, unassigned) [Compound 910 Isomer 1] is ____. > 5.70

Which pIC50 is listed for CO[C@@H]1C[C@H](C(=O)N(c2ccc(S(F)(F)(F)(F)F)cc2)C(C(=O)NC2CCC(F)(F)CC2)c2cncc(F)c2)N(C#N)C1 (single isomer, unassigned) [1265 Isomer 2] ? > 5.70

Endpoint output: pIC50 of CS(=O)(=O)[C@H]1C[C@H](C(=O)N(c2ccc(S(F)(F)(F)(F)F)cc2)C(C(=O)NC2CCC(F)(F)CC2)c2cncc(F)c2)N(C#N)C1 (single isomer, unassigned) [1105 Isomer 1] . Value? > 5.70

Quick one: pIC50 for CC(C)(C)c1ccc(N(C(=O)[C@H]2[C@H](F)CCN2C#N)C(C(=O)NC2CCC(F)(F)CC2)c2cncc(F)c2)cc1 (single isomer, unassigned) [1212 Isomer 1] ? > 5.70

====

The following molecules are listed with their measured IC50 values.
# target entity: COVID-19 (nCoV-2019, SARS-CoV2) Mpro (Severe acute respiratory syndrome coronavirus 2)
# assay summary: COVID-19 (nCoV-2019, SARS-CoV2) Mpro enzymatic assay
# Assay type: biochemical
# measurement context: 25 nM Mpro, 25 μM substrate; read-out: COVID-19 Mpro IC50

Form field: reported IC50 of C[C@@]1(O)C[C@H](C(=O)N(c2ccc(-c3ccccc3)cc2)C(C(=O)NC2CCC(F)(F)CC2)c2cncc(F)c2)N(C#N)C1 (single isomer, unassigned) [1330 Isomer 1] < 2000 nM

So what does the record say about IC50 for CC(C(=O)NC1CCC(F)(F)CC1)(c1cccnc1)N(C(=O)[C@H]1C[C@@](C)(O)CN1C#N)c1ccc(S(F)(F)(F)(F)F)cc1 (stereo partly drawn) [Compound 1077] ? < 2000 nM

Quick one: IC50 for CC(C)(C)c1ccc(N(C(=O)[C@H]2C[C@@H](O)CN2C#N)C(C(=O)NC2CCCCC2)c2cccnc2)cc1 (single isomer, unassigned) [Compound 254 Isomer 1] ? 2000 to 10000 nM

====

# target entity: UniProt P0DTD1
# assay summary: COVID-19 (nCoV-2019, SARS-CoV2) Mpro enzymatic assay
# Assay type: biochemical
# measurement context: 25 nM Mpro, 25 μM substrate; read-out: COVID-19 Mpro IC50
property measured: IC50

compound	observed result
CC(C)(C)c1ccc(N(C(=O)[C@H]2C[C@@H](F)CN2C#N)C(C(=O)NC2CCCCC2)c2cccnc2)cc1 (single isomer, unassigned) [Compound 870 Isomer 1]	< 2000 nM
N#CN1CC2C[C@@]1(C(=O)N(c1ccc(S(F)(F)(F)(F)F)cc1)C(C(=O)NC1CCC(F)(F)CC1)c1cncc(F)c1)CO2 (stereo partly drawn) [Compound 1136b]	2000 to 10000 nM
CO[C@@H]1C[C@H](C(=O)N(c2ccc(C(C)(C)C)cc2)C(C(=O)NC2CCCCC2)c2cccnc2)N(C#N)C1 (single isomer, unassigned) [Compound 292 Isomer 2]	< 2000 nM
CC(C)(C)c1ccc(N(C(=O)[C@H]2CCCN2C#N)C(C(=O)NC2CCCCC2)c2cncc(F)c2)cc1 (single isomer, unassigned) [475 Isomer 1]	< 2000 nM

Given Cn1cnnc1C(C(=O)NC1CCCCC1)N(C(=O)[C@H]1C[C@@H](O)CN1C#N)c1ccc(C(C)(C)C)cc1 (single isomer, unassigned) [659 Isomer 1] , state its recorded IC50. 2000 to 10000 nM

// returns reported IC50 for input CO[C@@H]1C[C@H](C(=O)N(c2ccc(S(F)(F)(F)(F)F)cc2)C(C(=O)N2CCN(C)C(=O)C2)c2cccnc2)N(C#N)C1 (stereo partly drawn) 2000 to 10000 nM
